Each item that follows carries a reported Percent Effect.
target-under-test: Arginase-2, mitochondrial (Homo sapiens)
assay-comment: in vitro enzyme assay to detect the production of urea directly proportional to the activity of Arginase II; note: in the data most compounds retested in dose-response had high values
Type: functional
Parameters: scale not given: direction of the effect not stated beside the values
protocol-conditions: 33.3 µM
Could you give the number and then its unit, please?

Consider the following illustrative entries.
Cc1cn2nc(N3CCCN(Cc4noc(C)n4)CC3)sc2n1 : 1.94%
O=C(Nc1cnn(CCN2CCOCC2)c1)c1ccccc1O : 4.6%
CN(CCn1cccn1)S(=O)(=O)N1CCCC1c1ccco1 (configuration not stated) : 9.43%
CN(Cc1ccco1)Cc1ccccc1CNC(=O)c1ccncc1 : 0%
CCOc1cc(C(=O)N2CCCC(c3noc(C)n3)C2)ccn1 (configuration not stated) : -1.08%
O=C1CN(Cc2nnc(-c3ccc(Br)o3)o2)CCN1 : 1.32%

## Task Return reported Percent Effect. Input compound: CCC(CO)N(Cc1ccccn1)C(=O)c1ccc2c(c1)CCO2 (configuration not stated)
## Result 15.6%

## Task Return reported Percent Effect. Input compound: CC(C)Cc1noc(CN2CCOC(Cn3cncn3)C2)n1 (configuration not stated)
## Result 4.25%

## Task Return reported Percent Effect. Input compound: CS(=O)(=O)NCC(=O)NC1CCc2nccn2C1 (configuration not stated)
## Result 1.56%

## Task Return reported Percent Effect. Input compound: CCCNC(=O)c1c(-n2cnnn2)sc2c1CCC2
## Result 3.55%

## Task Return reported Percent Effect. Input compound: CCNC(c1cccnc1)c1cc(C)cc(C)c1 (configuration not stated)
## Result -4.52%

## Task Return reported Percent Effect. Input compound: Cc1ncsc1CN1C[C@@H]2COC[C@]2(COc2ccc(C#N)cn2)C1
## Result -3.59%

---

target-under-test: Sialic acid-binding Ig-like lectin 9 (Homo sapiens) (UniProt Q9Y336)
Sequence (Q9Y336 whole entry): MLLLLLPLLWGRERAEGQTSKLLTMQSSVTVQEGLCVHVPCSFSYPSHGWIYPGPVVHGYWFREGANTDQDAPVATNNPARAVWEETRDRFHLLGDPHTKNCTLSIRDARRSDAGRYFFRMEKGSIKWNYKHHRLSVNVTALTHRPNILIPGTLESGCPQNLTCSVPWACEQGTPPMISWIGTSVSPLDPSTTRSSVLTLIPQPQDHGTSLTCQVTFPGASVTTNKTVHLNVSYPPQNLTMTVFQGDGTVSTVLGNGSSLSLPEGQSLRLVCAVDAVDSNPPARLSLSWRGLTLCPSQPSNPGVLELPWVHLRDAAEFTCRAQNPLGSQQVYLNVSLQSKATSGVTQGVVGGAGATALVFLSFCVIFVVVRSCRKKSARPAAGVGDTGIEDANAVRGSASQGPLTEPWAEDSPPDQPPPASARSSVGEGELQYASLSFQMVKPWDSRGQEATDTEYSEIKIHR
assay-comment: Hs-Siglec9 ALPHAscreen SOP 20170721
Design: scale not given: direction of the effect not stated beside the values
protocol-conditions: 10 µM
parameter: Percent Effect (%)
Write down the numeric answer in % and omit the unit.

CCN(CC1CCOC1)C(=O)c1ccccc1NS(=O)(=O)CC (configuration not stated) : -1.92
Cn1nccc1-c1ccc2nc(C3CCN(CCO)CC3)nn2c1 : 3.71
CCC1=N[C@@]2(CC[C@@H]3CN(C(=O)Nc4ccc(F)cc4)C[C@@H]32)C(=O)N1 : -2.41
COC[C@]12COC[C@H]1CN(Cc1cc(OC)cc(OC)c1)C2 : 2.27
c1cnn(-c2ccc(CN3CCOC(Cn4cncn4)C3)cc2)c1 (configuration not stated) : 6.36
COc1ccc(OCCCNC(=O)NCc2csc(C)n2)cc1 : -5.68

## Task Return reported Percent Effect. Input molecule: CC(C)[C@H](NC(=O)NC1CCS(=O)(=O)C1)C(=O)NCc1cccnc1 (some centres not stated)
## Result 2.33

## Task Return reported Percent Effect. Input molecule: O=C(NCc1ccccn1)[C@H]1COC[C@H]2CN(Cc3ccoc3)C[C@H]21
## Result -1.93

## Task Return reported Percent Effect. Input molecule: CCc1nc(CN2CCCC(NCc3nnc(C4CC4)o3)C2)no1 (configuration not stated)
## Result -12.1

## Task Return reported Percent Effect. Input molecule: Cc1noc([C@@H]2CC[C@@H]3[C@@H](CCN3S(=O)(=O)C3CC3)O2)n1
## Result -3.31
